tested on: UO-31 renal; experiment: NCI-60 one-dose screen, 48 h (100 = growth as untreated, 0 = no growth, -100 = all killed); conditions: 10 µM unless noted
The panel holds about 83,000 compounds, 20% with a hit somewhere; the sample as a whole holds those more often.
Threshold-based label: growth under 90% gives Fulfilled, growth not under 90% gives Not fulfilled.

Q: Item NC(Cc1ccc2c(c1)OCO2)c1ccc2c(c1)OCO2 (stereo not given) : growth beneath 90%, strictly?
Result: Not fulfilled

###

# growth per entry
test system: HL-60(TB) leukemia; experiment: NCI-60 one-dose screen, 48 h (100 = growth as untreated, 0 = no growth, -100 = all killed); details: 10 µM unless noted
Compounds without any hit were thinned out: in the full panel of roughly 83,000, 20% have a hit.
Reply numerically in %, unit not repeated.

compound | experimentalTarget | quantitativeReadout
COc1cc(/C=N/n2c(CN3CCOCC3)nc3ccccc3c2=O)cc(OC)c1OC | HL-60(TB) leukemia | 98.1
CN1CCN(Cc2ccc(NC(=O)c3ccc(C(C)(C)C)c(C#Cc4cnc5cccnn45)c3)cc2C(F)(F)F)CC1 | HL-60(TB) leukemia | -17.4
COc1ccc(-c2c(-c3cc(OC)c4c(c3)OCO4)noc2N)cc1 | HL-60(TB) leukemia | -7.49

Q: Identify the reported growth for the following entry. Fc1ccc(-c2nnc(/C=C/c3cn(-c4ccccc4)nc3-c3ccccc3)o2)cc1
Result: 94.2

Q: Identify the reported growth for the following entry. C=C1C(=O)O[C@H]2[C@H]1CC/C(Cn1cc(-c3ccccc3)nn1)=C\CC[C@@]1(C)O[C@@H]21
Result: -28.9

Q: Identify the reported growth for the following entry. COc1ncc(-c2ccc3nccc(-c4ccnnc4)c3c2)cc1NS(=O)(=O)c1ccc(F)cc1F
Result: -13.8

###

tested on: HL-60(TB) leukemia; test: NCI-60 one-dose screen, 48 h; conditions: 10 µM unless noted
The panel holds about 83,000 compounds, 20% with a hit somewhere; the sample as a whole holds those more often. Calls of active or inactive are those of the source. How the source made its calls: active means growth percent below 10; inactive means the rest.
Respond with a class label; see True = active, False = inactive

Before answering, review these 10 worked examples.
compound | classLabel
COCCn1cc(-c2nc(-c3c[nH]c4ncccc34)cs2)c2ccccc21 | False
CC(C)(C)OC(=O)N1CCN(c2ccc(N)cc2)C(=O)C1 | False
CCCn1c(N)c(C(=O)CNc2ccc(I)cc2)c(=O)[nH]c1=O | True
Cc1cc2nc(-c3c(N)ncc(C#N)c3-c3ccc(Cl)cc3)[nH]c2cc1C | False
CC(=O)Oc1cc2ccccc2cc1C(C)C | False
Cc1ccc(CNc2c3ccccc3nc3cc(NC(=O)CCN4CCCC4)ccc23)cc1 | True
O=C(C(=O)c1cccnc1)c1cccnc1 | False
CCN1C(=O)N(CC)C2Nn3c(s/c(=C4\C(=O)N(C5CCCC5)c5ccccc54)c3=O)=NC21 (configuration not stated) | False
Cc1ccc(C=C2C(=O)NC(=O)NC2=O)cc1 | False
CCOC(=O)CNN | False

Q: Which outcome was entered for the compound CC(=O)CCC(=O)OCc1cc(=O)c(O)co1 in this test?
Result: False

Q: Which outcome was entered for the compound NC(=O)NC(=O)c1ccc(Cl)cc1 in this test?
Result: False

###

# growth per entry
system: LOX IMVI melanoma; assay: NCI-60 one-dose screen, 48 h (100 = growth as untreated, 0 = no growth, -100 = all killed); settings: 10 µM unless noted
This is part of a sample that, as a whole, favours compounds with a hit. Of some 83,000 tested, about 20% had one in any assay.
Reply numerically in %, unit not repeated.

Known growth results, listed for orientation:
compound | experimentalTarget | quantitativeReadout
O=[N+]([O-])c1ccc2cnn(CSP(=S)(c3ccccc3)c3ccccc3)c2c1 | LOX IMVI melanoma | 65
NC(Cc1ccc(O)cc1)C(=O)N/N=C/c1ccc(N(CCCl)CCCl)cc1 (stereo not drawn) | LOX IMVI melanoma | 44.4
CCC(CO)NC1CCCCC1 (stereo not drawn) | LOX IMVI melanoma | 27.9
[O]=[Sn]([CH]1CCCCC1)[CH]1CCCCC1 | LOX IMVI melanoma | -89.6
CCOC(=O)C1(c2ccccc2)CCN(CC(=O)c2ccc(NC(C)=O)cc2)CC1 | LOX IMVI melanoma | 88.8

Q: Identify the reported growth for the following entry. Nc1ccc(N)c2c1Oc1ccccc1O2
Result: 90.3

Q: Identify the reported growth for the following entry. C#CC1(O)CCC2(C)C(CCC3C4CCC(=O)C4(C)CCC32)C1 (stereo not drawn)
Result: 96.6

Q: Identify the reported growth for the following entry. Oc1c(Br)cc(Br)cc1Br.[Cu+2]
Result: 89

Q: Identify the reported growth for the following entry. CC(/C=N/N=C(N)N)=N\N=C(N)N
Result: 67

Q: Identify the reported growth for the following entry. C[C@]12CC[C@H](OC3OC(O)C(O)C(O)C3O)C=C1CCC1C2CC[C@]2(C)[C@@H](c3ccc(=O)oc3)CC[C@]12O (stereo partly drawn)
Result: -84.4

Q: Identify the reported growth for the following entry. CCN(CC)c1ccc(C=C2C(=O)NC(=S)NC2=O)cc1
Result: 80

Q: Identify the reported growth for the following entry. CC(C)C1c2ccc(O)cc2Oc2nc(N)c(C#N)c(N)c21 (stereo not drawn)
Result: 103

Q: Identify the reported growth for the following entry. O=C(O)CNC(=O)c1ccccc1
Result: 95.9

These entries and their values trace back to PubChem BioAssay (NCI).
